Exercise: state measured IC50 for each of the compounds provided.
target: PI3Kα (wild-type), P110/P85α (Homo sapiens, UniProt P42336); test: PI3 Kinase TR-FRET assay, PI3Kα (wild-type)
Sequence (P42336 whole entry): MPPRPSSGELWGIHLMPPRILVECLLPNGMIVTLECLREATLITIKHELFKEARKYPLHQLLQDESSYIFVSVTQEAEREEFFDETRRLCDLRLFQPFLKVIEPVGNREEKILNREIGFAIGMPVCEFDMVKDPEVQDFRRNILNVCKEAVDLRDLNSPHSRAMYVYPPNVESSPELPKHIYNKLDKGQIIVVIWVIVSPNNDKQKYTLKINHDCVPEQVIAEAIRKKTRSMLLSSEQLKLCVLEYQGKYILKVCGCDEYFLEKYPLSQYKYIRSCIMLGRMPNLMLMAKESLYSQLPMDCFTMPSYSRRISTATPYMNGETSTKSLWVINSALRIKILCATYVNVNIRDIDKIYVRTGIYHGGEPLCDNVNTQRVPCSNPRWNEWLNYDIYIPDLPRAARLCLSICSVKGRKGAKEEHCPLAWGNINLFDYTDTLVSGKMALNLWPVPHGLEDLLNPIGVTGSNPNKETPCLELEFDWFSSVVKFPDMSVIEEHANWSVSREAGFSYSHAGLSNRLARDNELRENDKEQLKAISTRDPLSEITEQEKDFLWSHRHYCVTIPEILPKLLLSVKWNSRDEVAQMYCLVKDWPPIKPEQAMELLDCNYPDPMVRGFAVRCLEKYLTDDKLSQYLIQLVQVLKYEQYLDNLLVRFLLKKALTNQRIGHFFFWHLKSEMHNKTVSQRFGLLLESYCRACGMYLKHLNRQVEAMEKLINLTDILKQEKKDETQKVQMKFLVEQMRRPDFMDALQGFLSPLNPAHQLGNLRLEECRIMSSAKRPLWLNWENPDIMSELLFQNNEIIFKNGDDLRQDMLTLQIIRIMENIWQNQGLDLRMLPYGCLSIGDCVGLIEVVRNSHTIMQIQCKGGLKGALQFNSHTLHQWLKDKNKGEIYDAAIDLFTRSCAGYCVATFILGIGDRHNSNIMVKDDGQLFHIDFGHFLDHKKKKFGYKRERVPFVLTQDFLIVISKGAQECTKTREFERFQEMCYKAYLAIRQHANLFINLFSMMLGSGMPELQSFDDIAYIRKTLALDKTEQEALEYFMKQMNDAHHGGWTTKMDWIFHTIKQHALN
Sequence (P27986 whole entry partner): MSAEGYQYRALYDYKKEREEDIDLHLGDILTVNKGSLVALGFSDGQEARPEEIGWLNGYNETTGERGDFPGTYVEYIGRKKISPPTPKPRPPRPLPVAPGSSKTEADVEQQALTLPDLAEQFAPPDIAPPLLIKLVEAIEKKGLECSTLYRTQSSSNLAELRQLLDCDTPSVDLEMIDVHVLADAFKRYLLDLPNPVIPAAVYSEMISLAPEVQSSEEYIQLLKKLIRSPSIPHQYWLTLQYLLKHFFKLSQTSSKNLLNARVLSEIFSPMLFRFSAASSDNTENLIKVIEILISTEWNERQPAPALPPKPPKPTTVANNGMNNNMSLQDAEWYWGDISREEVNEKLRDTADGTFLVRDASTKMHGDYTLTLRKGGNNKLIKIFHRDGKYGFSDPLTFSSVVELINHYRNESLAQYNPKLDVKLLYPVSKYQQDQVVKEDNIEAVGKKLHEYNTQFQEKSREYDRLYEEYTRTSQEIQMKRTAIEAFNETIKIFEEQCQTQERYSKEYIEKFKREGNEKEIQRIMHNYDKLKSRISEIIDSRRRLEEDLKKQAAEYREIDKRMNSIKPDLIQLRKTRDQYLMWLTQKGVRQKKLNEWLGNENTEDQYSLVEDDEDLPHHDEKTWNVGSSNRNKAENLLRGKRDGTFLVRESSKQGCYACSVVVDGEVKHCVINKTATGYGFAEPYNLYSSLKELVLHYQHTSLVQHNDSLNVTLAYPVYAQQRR

QUERY: Using the record for CN(C)C(=O)c1ccc(NC(=O)Nc2ccc(-c3nc(N4CCOCC4)c4ccc(-c5ccc(N)nc5)cc4n3)cc2)cc1 , state its measured IC50.
RESULT: < 50 nM

QUERY: Using the record for Cc1ccc(-c2ccc3c(N4CCOCC4)nc(-c4ccc(NC(=O)Nc5ccc(C(=O)N(C)C)nc5)nc4)nc3c2)o1 , state its measured IC50.
RESULT: < 50 nM

QUERY: Using the record for Cc1ccc(-c2ccc3c(N4CCOCC4)nc(-c4ccc(NC(=O)Nc5ccc(C(=O)N(C)CCN(C)C)cc5)cc4)nc3c2)o1 , state its measured IC50.
RESULT: < 50 nM

QUERY: Using the record for Cc1ccc(-c2ccc3c(N4CCOCC4)nc(-c4ccc(NC(=O)Nc5ccc(C(=O)N6CCN(C)CC6)cc5)cc4)nc3c2)o1 , state its measured IC50.
RESULT: 50 to 200 nM

QUERY: Using the record for CN(C)C(=O)c1ccc(NC(=O)Nc2ccc(-c3nc(N4CCOCC4)c4ccc(-c5cnn(C)c5)cc4n3)cc2)cc1 , state its measured IC50.
RESULT: < 50 nM

QUERY: Using the record for CN(C)C(=O)c1ccc(NC(=O)Nc2ccc(-c3nc(N4CCOCC4)c4ccc(-c5ccc(CO)o5)cc4n3)c(F)c2)cc1 , state its measured IC50.
RESULT: < 50 nM

QUERY: Using the record for CN(C)C(=O)c1ccc(NC(=O)Nc2ccc(-c3nc(N4CCOCC4)c4ccccc4n3)cc2)cc1 , state its measured IC50.
RESULT: 50 to 200 nM

QUERY: Using the record for CC(O)c1ccc(-c2cnc3c(N4CCOCC4)nc(-c4ccc(NC(=O)Nc5ccc(C(=O)N(C)C)cc5)cc4)nc3c2)o1 (stereo not shown) , state its measured IC50.
RESULT: < 50 nM

QUERY: Using the record for Cc1ccc(-c2ccc3c(N4CCOC(C)C4)nc(-c4ccc(NC(=O)Nc5ccc(C(=O)N(C)C)cc5)cc4)nc3c2)o1 (stereo not shown) , state its measured IC50.
RESULT: 50 to 200 nM

QUERY: Using the record for CN(C)C(=O)c1ccc(NC(=O)Nc2ccc(-c3nc(N4CCOCC4)c4cc(F)c(-c5cccnc5)cc4n3)cc2)cc1 , state its measured IC50.
RESULT: < 50 nM

QUERY: Using the record for CN(C)C(=O)c1ccc(NC(=O)Nc2ccc(-c3nc(N4CCOCC4)c4ccc(-c5cccc(S(C)(=O)=O)c5)cc4n3)cn2)cc1F , state its measured IC50.
RESULT: < 50 nM

QUERY: Using the record for COc1ncc(-c2cnc3c(N4CCOCC4)nc(-c4ccc(NC(=O)Nc5ccc(C(=O)N(C)C)cc5)c(F)c4)nc3c2)cn1 , state its measured IC50.
RESULT: < 50 nM

QUERY: Using the record for CN(C)C(=O)c1ccc(NC(=O)Nc2ccc(-c3nc(N4CCOCC4)c4cc(F)c(-c5ccco5)cc4n3)cc2)cc1 , state its measured IC50.
RESULT: 50 to 200 nM

====

system: PC3 cells; assay: XTT assay for cell viability, PC3 cells; format: cell-based, human; details: Homo sapiens, PC-3, cell viability
experimental endpoint: IC50

QUERY: Using the record for Cc1ccncc1-c1ccc2c(N3CCOCC3)nc(-c3ccc(NC(=O)Nc4ccc(C(=O)N(C)C)cc4)c(F)c3)nc2c1 [Example 100] , state its measured IC50.
RESULT: 201 to 10000 nM

QUERY: Using the record for Cc1ccc(-c2ccc3c(N4CCOCC4)nc(-c4ccc(NC(=O)Nc5ccc(C(=O)N6CCN(C)CC6)cc5)cc4)nc3c2)o1 [Example 70] , state its measured IC50.
RESULT: 501 to 5000 nM

QUERY: Using the record for CN(C)C1CCN(C(=O)c2ccc(NC(=O)Nc3ccc(-c4nc(N5CCOCC5)c5ncc(-c6cnn(C)c6)cc5n4)cc3)cc2)CC1 [Example 186] , state its measured IC50.
RESULT: 201 to 10000 nM
